Each recorded value in this set is attributed to ChEMBL document CHEMBL1201862.

The reader will find reported GI50 values listed item by item below.
# Test system: HOP-18
# protocol description: NCI tumour cell line growth inhibition, 48 h
Calls of active or inactive are those of the source. Cut-off read from the data, not from the text of the source: active = GI50 up to about 1.1 µM and inactive = higher.

>>> print(df.to_string())
                                   compound               result
0              CN(C)c1n/c(=N/c2ncn[nH]2)ss1  > 100 µM (inactive)
1  CC1=C2C(c3ccccc3)(c3ccccc3)C3C=CC2(C=N3)N(C(=O)NC2CCCCC2)C1=O (stereo unspecified)   18.7 µM (inactive)
2  O=C(O)COc1ccc(C(=O)/C(SS/C(C(=O)c2ccc(OCC(=O)O)c(Cl)c2Cl)=C2\C=C(c3ccc(Cl)cc3)SS2)=C2/C=C(c3ccc(Cl)cc3)SS2)c(Cl)c1Cl   7.73 µM (inactive)
3  COc1cc2c(cc1OC)C(C(=O)O)C(c1ccccc1)N(C)C2=O (stereo unspecified)  > 100 µM (inactive)
4  CC(=O)O[C@]1(C)OC(=O)[C@@H](C)N1[N+](=O)[O-]  > 100 µM (inactive)
5  O=C1c2ccccc2C(=O)c2sc(Nc3ccc(Cl)c(Cl)c3)nc21   5.06 µM (inactive)
6            N=c1nc(N)c2cc3c(N)nc(=N)c3cc12   8.97 µM (inactive)
7  O=C1C=CC(=O)C2C1Cc1ccccc1C2c1ccccc1 (stereo unspecified)   53.6 µM (inactive)

Input: So what GI50 did O=C1c2cccc3cc([N+](=O)[O-])cc(c23)C(=O)N1NC1=NCCN1 get with HOP-18?
Output: > 100 µM (inactive)

Input: So what GI50 did CCC/C=C\C=C\C1(NS(=O)(=O)c2ccc(C)cc2)CCC(C(C)(C)C)CC1 (stereo unspecified) get with HOP-18?
Output: 14.9 µM (inactive)

Input: So what GI50 did COc1cc(/C=C/C(=O)Oc2ccccc2)ccc1C(=O)O/C=C/c1ccccc1 get with HOP-18?
Output: > 100 µM (inactive)

====

The reader will find reported GI50 values listed item by item below.
# System: NCI-H226
# protocol description: NCI tumour cell line growth inhibition, 48 h
The source made the active and inactive calls. Rule as the data show it: active = GI50 up to about 1.1 µM and inactive = higher.

Sample answers from the record:
                                   molecule               result
0  O=C(CCn1[nH]c(=O)c(Cl)c(Cl)c1=O)NOCCCc1ccccc1  > 100 µM (inactive)
1        c1ccc(CCN2CCc3[nH]c4ccccc4c3C2)cc1   29.8 µM (inactive)
2  CC1(CC(=O)OC(C#C[Si](C)(C)C)Cc2ccccc2)OCCO1 (stereo not given)  > 100 µM (inactive)
3  Cn1cc(NC(=O)c2cc(NC(=O)CNC(=N)N)cn2C)cc1C(=O)NCCC(=N)N [NETROPSIN CHLORIDE]  > 100 µM (inactive)
4  Cc1cc(N(CCOS(C)(=O)=O)CCOS(C)(=O)=O)ccc1/C=N/c1ccc(-c2csc(-c3ccc(Br)cc3)n2)cc1   12.6 µM (inactive)
5  O=C(NC(Cc1c[nH]c2ccccc12)C(=O)O)/C(=C/c1ccccc1O)NC(=O)c1ccccc1 (stereo not given)   16.3 µM (inactive)
6  CSC1=C(C#N)C(=S)N=C(N)C1C(=O)Nc1ccc(C)cc1 (stereo not given)   60.1 µM (inactive)
7  c1ccc([P+](c2ccccc2)(c2ccccc2)c2ccc([P+](c3ccccc3)(c3ccccc3)c3ccccc3)c3ccccc23)cc1  > 100 µM (inactive)
8  CSC1NNC2(C(=O)N1)c1ccccc1-c1ccccc12 (stereo not given)   > 10 µM (inactive)
9                   N=C(N)SCc1ccc(N=C=S)cc1   15.6 µM (inactive)

Kindly consider the entry below.
Input: Requested field: GI50. Item: COc1cc(C2SC(C)C(=O)N2c2ccc(-c3csc(NS(=O)(=O)c4ccc(Cl)c(OC)c4)n3)cc2)ccc1O (stereo not given)
Output: > 100 µM (inactive)
